Just for reference, a melting point compilation (Tetko et al.; mined from patent text by program, amines drawn as free bases though some values may be those of a salt) is where these values come from.

melting point listing for selected compounds.

{"columns": ["Compound", "melting point"],
 "data": [
  ["CC(C)(C)c1nn(-c2ccc(N)cc2Cl)c(=O)o1", "158 to 159 °C"],
  ["CC(C)OC(=O)c1ncn2c1[C@@H]1CCCN1C(=O)c1ccccc1-2", "207 to 208 °C"],
  ["COc1cc(C)c(Cl)cc1C(C)=O", "83 °C"],
  ["Cn1c(COc2ccc(CC3SC(=O)NC3=O)cc2)nc2ccc(O)nc21 (stereo not given)", "240 to 242 °C"],
  ["O=c1n(-c2cc(OCCCl)c(Cl)cc2Cl)nc2n1CCCC2", "148 to 150 °C"],
  ["CC(C)(C)Nc1nc(C#N)c(C#N)nc1Cl", "169 to 173 °C"],
  ["CC(=Cc1ccc2ccc3cccc4ccc1c2c34)c1ccc(Cl)cc1", "162 to 164 °C"],
  ["CC[C@H](CO)Nc1nc(NCc2ccccc2)c2nnn(C(C)C)c2n1", "115 to 118 °C"],
  ["ClCCN(CCCl)CCOc1cccc(Nc2c3ccccc3nc3c(OCCN(CCCl)CCCl)cccc23)c1", "108 to 109 °C"],
  ["Cc1nc2cccc(C)n2c(=O)c1CCN1CCC(c2c[nH]c3ccccc23)CC1", "225 °C"]
]}
